Data provenance: ChEMBL document CHEMBL5150030

Here the recorded remaining at 24 h is given for each entry.
experimentalProtocol: Stability of compound in mouse serum at 37 degreeC incubated for 24 hrs by RP-HPLC analysis
Type: ADME, cell-free
testParameters: read-out: Stability
Number in %, nothing else.

Value of remaining at 24 h reported for the molecule C#CCC(NC(=O)CCSC1CC(=O)N(CCCCCC(=O)N[C@@H](CCC(=O)O)C(=O)N[C@H](C(=O)N[C@@H](CCCNC(N)=O)C(=O)Nc2ccc(COC(=O)N(C)[C@H](C(=O)N[C@H](C(=O)N(C)[C@@H]([C@@H](C)CC)[C@@H](CC(=O)N3CCC[C@H]3[C@H](OC)[C@@H](C)C(=O)N[C@H](C)[C@@H](O)c3ccccc3)OC)C(C)C)C(C)C)cc2)C(C)C)C1=O)C(=O)NCCCCCC(=O)NCCCC[C@H](NC(=O)N[C@@H](CCC(=O)O)C(=O)O)C(=O)O (some centres not stated) is 64.1

Value of remaining at 24 h reported for the molecule CC[C@H](C)[C@@H]([C@@H](CC(=O)N1CCC[C@H]1[C@H](OC)[C@@H](C)C(=O)N[C@H](C)[C@@H](O)c1ccccc1)OC)N(C)C(=O)[C@@H](NC(=O)[C@H](C(C)C)N(C)C(=O)OCc1ccc(NC(=O)[C@H](CCCNC(N)=O)NC(=O)[C@@H](NC(=O)[C@H](CCC(=O)O)NC(=O)CCCCCN2C(=O)CC(SCCC(=O)NC(Cc3cn(CCOCCOCCNCCCCCCOc4cc(OCCCc5c(C)n[nH]c5C)cc(C(=O)O)c4)nn3)C(=O)NCCCCCC(=O)NCCCC[C@H](NC(=O)N[C@@H](CCC(=O)O)C(=O)O)C(=O)O)C2=O)C(C)C)cc1)C(C)C (some centres not stated) is 71.3
